system: apoB RNA in primary human hepatocytes; assay: apoB RNA expression analysis (qRT-PCR) after 72 hr treatment; assay type: cell-based; conditions: transfection with RNAi-MAX, read-out: IC50 apoB RNA levels
RESULT TYPE: IC50

Lookup: I have this substance here, 5′-GCattggtatTCA-3′ (GCATTGGTATTCA; listed as DNA, chemistry not fully specified) [ApoB #02 BNA] , and I need its recorded IC50.
Found: 8 nM
